# credit: patent US20200147199A1

- assayed-system: ZIKV E Domain III ([..]), polyhistidine-AviTag, produced in HEK-293-6E cells (ZIKV)
- measurement-description: ELISA on coated ZIKV EDIII
- measurement-conditions: remark: other sources report otherwise
Let's look at some binders and their measured EC50.

q: For the binder Z059 (MEX84_p4-34) (antibody, V domains shown) VH: EVQLVQSGAEVKTPGSSVKVSCKTSGGTFSNFAITWVRQAPGQGLEWMGGIIPLFGITNYTQKFQGRVTITTDESKTTAYMDLSGLRSEDTAVYFCARGRDSSGRLLDHWGQGTLVTVSS VL: EIVMTQSPATLSVSPGERATLSCRASQTVNRNLAWYQQKPGQAPRLLIYAASARATGVPARFSGSGSGTEFTLTISSLQSEDFVVYYCQQYNNWPPLTFGGGTKLEIK , give its reported EC50.
a: 0.61 µg/mL

q: For the binder Z013 (MEX18_84) (antibody, V domains shown) VH: EVQLLESGGGLVQPGGSLRLSCAASGFTFTSYAMNWVRQAPGKGLEWVSGIGGRGAIAGDGSIYYADSVKGRFTISRDNSKNIVYLQMNGLRVEDTAVYYCAKDRVAFDGFHVWGQGTLVTVSS VL: DIQMTQSPPTLSASVGDRVTITCRASQSISSWLAWYQQKPGKAPKLLIYKASSLESGVPSRFSGSGSGTEFSLTISSLQPEDFATYYCQQYNSYPWTFGQGTKVEIK , give its reported EC50.
a: > 10 µg/mL

q: For the binder Z007 (MEX105_50) (antibody, V domains shown) VH: EVQLLESGGGLVRPGGSLRLSCTASGFTFRRYAMAWVRQAPGKGLEWVSLIYDGDDSTYYAKSVKGRFAISRDNSKNTLSLQMNSLRAEDTAVYYCVKDRDNGWSSIVDWGQGTLVTVSS VL: DIQMTQSPSTLSASVGDRVTITCRASHSISGWLAWYQQKPGKAPKLLIYQASILESGVPSRFSGSGSGTEFTLTIGSLQPEDFATYFCQQYSTFWTFGQGTKVEIK , give its reported EC50.
a: 0.0346 µg/mL
